Values from paper PMC4920026

molecular target: huPrP(23–230) (Homo sapiens, UniProt P04156); assay type: binding; details: binding site D; Kapp = 1/k2 + k3/k2; 293 K; read-out: Kapp Xe (apparent xenon dissociation constant)
measured-metric: Kd (mM)
Answer with a number only, understood to be in mM.

query: GET /values?readout=Kd&item= `[Xe]`
result: 11.8

---

target: huPrP(23–230) (Homo sapiens, UniProt P04156); assay type: binding; details: binding site B; Kapp = 1/k2 + k3/k2; 293 K; read-out: Kapp Xe (apparent xenon dissociation constant)
measured-metric: Kd
In your response, the unit should come after the numeric value.

query: Bench note: what Kd did [Xe] [xenon] show?
result: 9.1 mM
